Recorded measurements of logP, one per entry
# respond with the number and nothing more

Use the examples below as a reference point.
1. CCCCCCCCNC(=O)N1C(=O)N(C)CC1O (stereo unspecified) : 3.46
2. CCCCCNC(=O)N1C(=O)N(C)CC1O (stereo unspecified) : 1.75
3. CN1CC(O)N(C(=O)NC2CCCC2)C1=O (stereo unspecified) : 1.47
4. CN1CC(O)N(C(=O)Nc2ccccc2)C1=O (stereo unspecified) : 1.44
5. CC1CCCCC1NC(=O)N1C(=O)N(C)CC1O (stereo unspecified) : 2.2
6. CCCNC(=O)N1C(=O)N(C)CC1O (stereo unspecified) : 0.99
7. CC(C)CNC(=O)N1C(=O)N(C)CC1O (stereo unspecified) : 1.32
8. CCC(C)NC(=O)N1C(=O)N(C)CC1O (stereo unspecified) : 1.28
9. CN1CC(O)N(C(=O)NC2CCCCCC2)C1=O (stereo unspecified) : 2.29
10. CC1CCC(NC(=O)N2C(=O)N(C)CC2O)CC1 (stereo unspecified) : 2.41

Problem: Query (compound): CN1CC(O)N(C(=O)NC(C)(C)C)C1=O (stereo unspecified) ; field requested: logP
Solution: 1.38

Problem: Also CC(C)NC(=O)N1C(=O)N(C)CC1O (stereo unspecified) , if possible.
Solution: 0.96

Problem: // repeat for CCCCNC(=O)N1C(=O)N(C)CC1O (stereo unspecified) and report
Solution: 1.38

Reference source: the SangsterLogP compilation
